# assayed.system: UniProtKB P31389
# Sequence (P31389 whole entry): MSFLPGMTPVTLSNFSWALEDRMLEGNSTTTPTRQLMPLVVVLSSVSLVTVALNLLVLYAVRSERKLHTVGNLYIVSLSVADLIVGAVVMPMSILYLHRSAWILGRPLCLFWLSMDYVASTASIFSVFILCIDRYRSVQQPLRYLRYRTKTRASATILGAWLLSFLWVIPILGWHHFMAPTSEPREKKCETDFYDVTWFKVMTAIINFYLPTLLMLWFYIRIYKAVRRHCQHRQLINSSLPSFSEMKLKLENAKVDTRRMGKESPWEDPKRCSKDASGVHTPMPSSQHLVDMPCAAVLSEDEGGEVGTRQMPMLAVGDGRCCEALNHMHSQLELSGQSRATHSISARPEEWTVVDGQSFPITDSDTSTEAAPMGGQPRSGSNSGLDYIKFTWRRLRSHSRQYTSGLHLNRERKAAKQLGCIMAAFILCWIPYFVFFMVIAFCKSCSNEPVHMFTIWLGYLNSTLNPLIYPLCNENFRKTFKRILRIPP
# test.name: Displacement of [3H]mepyramine from histamine H1 receptor in guinea pig cerebellum homogenates after 60 mins by liquid scintillation counting

| chemical.structure | value.units | Ki |
| --- | --- | --- |
| Fc1ccc2c(C3CCN(CCCOc4ccc(Cc5nc6ccccc6o5)cc4)CC3)noc2c1 | µM | 3.15 |

* * *

# assayed.system: 5-hydroxytryptamine receptor 1A (Rattus norvegicus, UniProt P19327)
# Sequence (P19327 whole entry): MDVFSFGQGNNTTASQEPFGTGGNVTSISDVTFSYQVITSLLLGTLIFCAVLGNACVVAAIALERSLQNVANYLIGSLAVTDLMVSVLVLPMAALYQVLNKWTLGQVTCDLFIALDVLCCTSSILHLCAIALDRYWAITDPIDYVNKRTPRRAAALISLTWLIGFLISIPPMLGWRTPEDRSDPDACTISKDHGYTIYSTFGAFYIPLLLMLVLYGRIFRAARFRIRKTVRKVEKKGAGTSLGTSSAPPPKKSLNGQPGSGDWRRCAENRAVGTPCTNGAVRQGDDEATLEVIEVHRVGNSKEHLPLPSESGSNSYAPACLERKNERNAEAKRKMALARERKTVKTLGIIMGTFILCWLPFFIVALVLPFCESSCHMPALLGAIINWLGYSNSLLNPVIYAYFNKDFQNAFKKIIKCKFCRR
Ki for assorted compounds

| compound | result.operator | Ki, µM |
| --- | --- | --- |
| c1ccc2oc(-c3ccc(OCCCN4CCN(c5nsc6ccccc56)CC4)cc3)nc2c1 | = | 0.97 |
| FC(F)(F)c1cccc(N2CCN(CCCOc3ccc(-c4nc5ccccc5o4)cc3)CC2)c1 | > | 10 |
| c1ccc2oc(-c3ccc(OCCCN4CCC(c5nc6ccccc6s5)CC4)cc3)nc2c1 | = | 0.146 |
| CC(c1ccc(OCCCN2CCC(c3noc4cc(F)ccc34)CC2)cc1)c1nc2ccccc2o1 (stereo not given) | = | 0.0896 |
| Clc1cccc(N2CCN(CCCOc3ccc(-c4nc5ccccc5o4)cc3)CC2)c1Cl | > | 10 |

* * *

# assayed.system: D(2) dopamine receptor (Rattus norvegicus)
# test.name: Displacement of [3H]spiperone from dopaminergic D2 receptor in rat striatum homogenates after 60 mins by liquid scintillation counting
reported.property: Ki (nM)

| chemical.structure | assayed.system | result.operator | recorded.value |
| --- | --- | --- | --- |
| Cc1cc(-c2nc3ccccc3o2)ccc1OCCCN1CCC(c2noc3cc(F)ccc23)CC1 | D(2) dopamine receptor (Rattus norvegicus) | = | 1590 |
| c1ccc(N2CCN(CCCOc3ccc(-c4nc5ccccc5o4)cc3)CC2)cc1 | D(2) dopamine receptor (Rattus norvegicus) | > | 10000 |
| Clc1cccc(N2CCN(CCCOc3ccc(-c4nc5ccccc5o4)cc3)CC2)c1Cl | D(2) dopamine receptor (Rattus norvegicus) | > | 10000 |
| Fc1ccc2c(C3CCN(CCCOc4ccc(-c5nc6cc(Cl)ccc6o5)cc4)CC3)noc2c1 | D(2) dopamine receptor (Rattus norvegicus) | = | 660 |
| COc1ccccc1N1CCN(CCCOc2ccc(-c3nc4ccccc4[nH]3)cc2)CC1 | D(2) dopamine receptor (Rattus norvegicus) | = | 16.3 |

* * *

pKi for assorted compounds
# assayed.system: D(2) dopamine receptor (Rattus norvegicus, UniProt P61169)
# Sequence (P61169 whole entry): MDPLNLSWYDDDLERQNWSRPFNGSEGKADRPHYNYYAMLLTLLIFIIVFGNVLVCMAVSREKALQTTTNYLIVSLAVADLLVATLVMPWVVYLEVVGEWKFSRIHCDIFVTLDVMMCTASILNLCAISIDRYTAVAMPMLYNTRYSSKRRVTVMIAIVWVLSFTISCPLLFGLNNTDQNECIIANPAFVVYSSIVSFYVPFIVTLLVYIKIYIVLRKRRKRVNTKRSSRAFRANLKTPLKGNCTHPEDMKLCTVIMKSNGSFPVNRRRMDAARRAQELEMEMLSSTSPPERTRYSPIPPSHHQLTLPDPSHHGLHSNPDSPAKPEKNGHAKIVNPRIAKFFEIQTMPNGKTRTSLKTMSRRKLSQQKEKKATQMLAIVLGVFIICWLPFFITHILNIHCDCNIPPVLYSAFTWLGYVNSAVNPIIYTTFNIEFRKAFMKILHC
# test.name: Displacement of [3H]spiperone from dopaminergic D2 receptor in rat striatum homogenates after 60 mins by liquid scintillation counting
pKi: −log10 of the molar value.

| chemical.structure | assayed.system | result.operator | pKi |
| --- | --- | --- | --- |
| Cc1ccc2oc(-c3ccc(OCCCN4CCC(c5noc6cc(F)ccc56)CC4)cc3)nc2c1 | D(2) dopamine receptor (Rattus norvegicus, UniProt P61169) | < | 5.00 |
| COc1ccccc1N1CCN(CCCOc2ccc(-c3nc4ccccc4o3)cc2)CC1 | D(2) dopamine receptor (Rattus norvegicus, UniProt P61169) | = | 6.33 |
| c1cnc(N2CCN(CCCOc3ccc(-c4nc5ccccc5o4)cc3)CC2)nc1 | D(2) dopamine receptor (Rattus norvegicus, UniProt P61169) | = | 6.70 |
| COc1cc(OCCCN2CCC(c3noc4cc(F)ccc34)CC2)ccc1-c1nc2ccccc2o1 | D(2) dopamine receptor (Rattus norvegicus, UniProt P61169) | = | 5.92 |

* * *

# assayed.system: D(2) dopamine receptor (Rattus norvegicus)
# test.name: Displacement of [3H]spiperone from dopaminergic D2 receptor in rat striatum homogenates after 60 mins by liquid scintillation counting
Ki for assorted compounds
reported.property: Ki

| chemical.structure | reported.property | recorded.value |
| --- | --- | --- |
| c1ccc2oc(-c3ccc(OCCCN4CCC(c5nc6ccccc6s5)CC4)cc3)nc2c1 | Ki | > 10 µM |
| Fc1ccc2c(C3CCN(CCCOc4ccc(-c5nc6ccccc6s5)cc4)CC3)noc2c1 | Ki | > 10 µM |
| Cc1cccc(N2CCN(CCCOc3ccc(-c4nc5ccccc5o4)cc3)CC2)c1C | Ki | > 10 µM |
